Where do the numbers come from? From patent US8871753B2.

# target: human JAK1 (a.a. 837-1142) (Homo sapiens, UniProt P23458)
# Construct: human JAK1 (a.a. 837-1142); His tag (N); made in house; host or cells: insect cells (baculovirus)
# Sequence (P23458 849-1154): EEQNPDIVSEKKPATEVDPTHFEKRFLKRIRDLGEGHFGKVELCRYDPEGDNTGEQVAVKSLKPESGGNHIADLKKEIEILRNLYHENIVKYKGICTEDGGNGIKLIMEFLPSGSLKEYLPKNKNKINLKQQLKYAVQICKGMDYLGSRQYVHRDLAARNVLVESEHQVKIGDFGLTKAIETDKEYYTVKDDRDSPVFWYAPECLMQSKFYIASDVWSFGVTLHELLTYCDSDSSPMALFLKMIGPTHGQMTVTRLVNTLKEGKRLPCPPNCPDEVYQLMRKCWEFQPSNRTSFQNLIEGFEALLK
# assay procedure: In vitro JAK kinase assay (HTRF, phosphorylation of a biotinylated peptide), JAK1
# Type: biochemical
# experimental setup: Table B1; read-out: JAK1 IC50
Structures can show the parent of a compound that is named as a salt.
observable: IC50 (nM)

(A) O=C(NCc1ccncc1)c1cc2cc(c1)Nc1nc(ncc1Cl)Nc1cccc(c1)CC2 [Example B11, bis(trifluoroacetate)]
(B) N#Cc1ccc(NC(=O)Nc2ccc3cc2CCc2cccc(c2)Nc2ncc(Cl)c(n2)N3)cc1 [Example B96, trifluoroacetate]
(C) O=C(NCCN1CCOCC1)Nc1ccc2cc1CCc1cccc(c1)Nc1ncc(Cl)c(n1)N2 [Example B254, bis(trifluoroacetate)]
[Q] For the compounds shown above, give the order from largest IC50 to smallest. Provide the labels, sequenced as the question asks.
[A] A, C, B
(A: 97 nM, C: 2 nM, B: 1 nM)

* * *

# target: human JAK1 (a.a. 837-1142) (Homo sapiens, UniProt P23458)
# Construct: human JAK1 (a.a. 837-1142); His tag (N); made in house; host or cells: insect cells (baculovirus)
# assay procedure: In vitro JAK kinase assay (HTRF, phosphorylation of a biotinylated peptide), JAK1
# Format: biochemical
# experimental setup: Table B1; read-out: JAK1 IC50
pIC50: −log10 of the molar value. Where a name gives a salt, the structure may show the parent alone.
observable: pIC50

Previously resolved entries follow.
1. O=C(Nc1ccc(OC(F)(F)F)cc1)Nc1ccc2cc1CCc1cccc(c1)Nc1ncc(Cl)c(n1)N2 [Example B132, trifluoroacetate] | 7.96
2. O=C(Nc1ccc2cc1CCc1cccc(c1)Nc1ncc(Cl)c(n1)N2)c1ccccc1Cl [Example B41, hydrochloride] | 8.77
3. O=C(NCCNC(=O)c1ccccc1)Nc1ccc2cc1CCc1cccc(c1)Nc1ncc(Cl)c(n1)N2 [Example B189, trifluoroacetate] | 8.30
4. N#Cc1ccc(S(=O)(=O)Nc2ccc3cc2CCc2cccc(c2)Nc2ncc(Cl)c(n2)N3)cc1 [Example B154, trifluoroacetate] | 9.22
5. COc1ccccc1NC(=O)Nc1ccc2cc1CCc1cccc(c1)Nc1ncc(Cl)c(n1)N2 [Example B102, trifluoroacetate] | 8.70
6. O=C(Nc1ccc2cc1CCc1cncc(c1)Nc1ncc(Cl)c(n1)N2)N[C@H]1CCN(c2nc3cccnc3o2)C1 [Example B275, tris(trifluoroacetate)] | 7.85
7. CC(=O)N1CC[C@H](NC(=O)Nc2ccc3cc2CCc2cncc(c2)Nc2ncc(Cl)c(n2)N3)C1 [Example B226, bis(trifluoroacetate)] | 8.40
8. Cc1cc(C(=O)N2CCC(C(=O)N(C)Cc3ccc4cc3CCc3cncc(c3)Nc3ncc(Cl)c(n3)N4)CC2)no1 [Example B335, bis(trifluoroacetate)] | 7.35
9. N#Cc1cccc(S(=O)(=O)Nc2ccc3cc2CCc2cccc(c2)Nc2ncc(Cl)c(n2)N3)c1 [Example B153, trifluoroacetate] | 9.16
10. Cc1ncoc1C(=O)Nc1cc2cc(c1)Nc1nc(ncc1Cl)Nc1cccc(c1)CC2 [Example B210, trifluoroacetate] | 7.21

(1) N#Cc1cccnc1N1CCN(C(=O)Nc2ccc3cc2CCc2cncc(c2)Nc2ncc(Cl)c(n2)N3)CC1 [Example B311, tris(trifluoroacetate)]
(2) CN(Cc1ccc2cc1CCc1cncc(c1)Nc1ncc(Cl)c(n1)N2)CC1CCNCC1 [Example B339]
[Q] # return whichever of 1 and 2 has the smaller pIC50 // output: label of the selected item
[A] 2
